Test system: LOX IMVI melanoma
ASSAY DETAILS: NCI tumour cell line growth inhibition, 48 h
QUANTITY NAME: GI50

COMPOUND	RESULT
COc1ccc(-c2nn(-c3ccc(NC(=O)c4cc(Cl)cc(Cl)c4)cc3)cc2-c2ccncc2)cc1Cl	3.2 µM
CC(c1ccccc1)[C@@H](C(=O)Nc1ccc(I)cc1F)N1C(=O)N[C@H](c2ccc(OC[C@H](O)CO)cc2)C1=O (stereo partly specified)	2.5 µM
CCCCCC[C@@H](C)Nc1nc2ccccc2c2occc12	13.9 µM
N#Cc1ccccc1C#C/C=C\C#Cc1ccccc1N	4.04 µM
O=C(Nc1cccc(-n2cc(-c3ccncc3)c(-c3ccc(O)c(Cl)c3)n2)c1)c1cc(C(F)(F)F)cc(C(F)(F)F)c1	1.86 µM
CC(=O)[CH-]C(=O)c1ccccc1.CC(=O)[CH-]C(=O)c1ccccc1.CC(C)CCC[C@H](C)C1CCC2[C@@H]3CC=C4C[C@@H]([O-])CC[C@]4(C)C3CC[C@@]21C.CC(C)CCC[C@H](C)C1CCC2[C@@H]3CC=C4C[C@@H]([O-])CC[C@]4(C)C3CC[C@@]21C.Cl.[Ti+4] (stereo partly specified)	> 25 µM
CN1CCN(c2ccc(NC(=O)c3cncnc3Nc3ccc(OCc4cccc(F)c4)c(Cl)c3)cc2)CC1	0.849 µM
ClCc1ccc(Cn2cnc3c(Cl)ncnc32)cc1	5.8 µM
CCN(CC)CCN1C(=O)C2C3C(=O)CC(C)(CC3C)C2C1=O (stereo unspecified)	> 100 µM
COc1ccc2nc3cc([N+](=O)[O-])ccc3c(NNc3ccccc3)c2c1	14.5 µM
Cc1ccc(-c2nc(N3CCNCC3)c3oc(-c4ccccc4)nc3n2)cc1	1.88 µM
NC(Cc1c[nH]c2ccc(F)cc12)C(=O)O (stereo unspecified)	509 µM
C/C(=N/O)c1ccc2c(c1)/C(=N/O)c1ccccc1-2	16.3 µM
Cc1ccc(NC(=O)Nc2c(Cl)cccc2Cl)cn1	21.3 µM
CCN(CC)c1ccc2nc3c4ccccc4c(=O)cc-3n(-c3ccccc3)c2c1	1.62 µM
CCOC(=O)c1c(NC(=O)c2ccccc2)sc2c3c(ccc12)OCN(C)C3	1.62 µM
Clc1ccc2ncc(-c3cccc(NC4CNC4)n3)n2c1	2.47 µM
CCOc1ccc2c(c1)CN(Cc1ccc(Cl)cc1)CO2	17.2 µM
CC(C)(C)NC(=O)[C@H]1CC[C@H]2[C@@H]3CC[C@H]4NC(=O)C=C[C@]4(C)[C@H]3CC[C@]12C	> 100 µM
Cc1nc(-c2cnc(NC(C)C)n(C)c2=O)ccc1Oc1ccnc(-c2cnn(C)c2)c1	20.7 µM
O=C(COc1ccc(OCC(=O)N2C(=O)CN(c3ccccc3)C2=S)cc1)N1C(=O)CN(c2ccccc2)C1=S	29.6 µM

----------
System: SF-295 CNS
ASSAY DETAILS: NCI tumour cell line growth inhibition, 48 h
Measured TGI, listed per entry for reference.
QUANTITY NAME: TGI (µM)

                                   compound  quantity_name  bound_sign  quantitative_readout
0       Clc1ccc2ncc(-c3cccc(NC4CNC4)n3)n2c1            TGI           =                  20.2
1  CCc1cc2c(c3c1CCCC3)CC1(Cc3ccc(C(=O)OC)cc3C1)C2 (stereo not given)            TGI           >                   100
2  COC(=O)C1(C)CC2C(C)(CCC3(C)C4=CC=C5C(=CC(=O)C(O)=C5C)C4(C)CCC23C)CC1O (stereo not given)            TGI           =                  3.43
3  CCOC(=O)c1c(-c2cccc(Cl)c2)c(C(=O)OC)c(C)c2sc(C=O)nc12            TGI           =                  32.5
4     Cc1ccc(-c2nc3cc(Cl)c(Cl)cc3nc2C#N)cc1            TGI           >                   100

Data provenance: PubChem BioAssay (NCI)
